measured.target: A disintegrin and metalloproteinase with thrombospondin motifs 4 (Homo sapiens) (UniProt O75173)
Sequence (whole entry): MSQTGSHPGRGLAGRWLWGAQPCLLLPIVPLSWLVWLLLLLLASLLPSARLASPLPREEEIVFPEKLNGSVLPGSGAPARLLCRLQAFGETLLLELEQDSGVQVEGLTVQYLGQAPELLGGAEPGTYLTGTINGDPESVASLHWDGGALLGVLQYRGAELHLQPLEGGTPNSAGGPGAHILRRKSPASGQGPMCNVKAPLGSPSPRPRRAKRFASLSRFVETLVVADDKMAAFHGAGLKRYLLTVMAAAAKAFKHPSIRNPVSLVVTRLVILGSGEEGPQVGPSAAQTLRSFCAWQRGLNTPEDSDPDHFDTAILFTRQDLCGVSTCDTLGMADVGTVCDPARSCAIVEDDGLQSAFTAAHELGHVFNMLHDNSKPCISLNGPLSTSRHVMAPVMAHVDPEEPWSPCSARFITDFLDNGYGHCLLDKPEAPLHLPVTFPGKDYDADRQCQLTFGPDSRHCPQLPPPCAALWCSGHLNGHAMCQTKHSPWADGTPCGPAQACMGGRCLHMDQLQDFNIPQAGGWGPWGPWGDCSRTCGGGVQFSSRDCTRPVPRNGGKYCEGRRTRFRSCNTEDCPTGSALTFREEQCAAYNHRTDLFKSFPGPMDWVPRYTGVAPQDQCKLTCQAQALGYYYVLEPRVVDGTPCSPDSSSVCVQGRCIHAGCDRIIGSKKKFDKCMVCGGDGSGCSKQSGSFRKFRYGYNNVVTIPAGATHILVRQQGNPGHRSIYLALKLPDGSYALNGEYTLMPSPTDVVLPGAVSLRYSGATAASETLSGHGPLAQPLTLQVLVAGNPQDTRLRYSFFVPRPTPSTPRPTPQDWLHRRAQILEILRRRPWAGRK
test.method.notes: Inhibition of ADAMTS4 (unknown origin)
readout.type: INH (µM)

Use the examples below as a reference point.
>>> observed_value("CCC(C(=O)NO)N1Cc2sc(-c3ccccc3)cc2S1(=O)=O (racemic)")
1.1
>>> observed_value("CC(C)[C@H](NS(=O)(=O)c1ccc(-c2ccccc2)cc1)C(=O)O")
3

(P) CCC(C(=O)O)N1Cc2sc(-c3ccc(-c4cnn(Cc5ccccc5)c4)cc3)cc2S1(=O)=O (racemic)
(Q) CCC(C(=O)O)N1Cc2sc(-c3ccc(-c4ccccc4)cc3)cc2S1(=O)=O (racemic)
Enquiry: I'm curious, which of these has a smaller INH number: P or Q ? Please reply using the label of the selected record.
Return: Q

---

Species on record: Homo sapiens
test.method.notes: Selectivity ratio of inhibition of MMP2 (unknown origin) to ADAMTS5 (unknown origin)
readout.type: Ratio

>>> observed_value("CCC(C(=O)O)N1Cc2sc(-c3ccc(-c4ccc5ccn(C)c5c4)cc3)cc2S1(=O)=O (racemic)")
16.5
>>> observed_value("CCC(C(=O)O)N1Cc2sc(C#Cc3ccccn3)cc2S1(=O)=O (racemic)")
"> 3.23"
>>> observed_value("CCC(C(=O)O)N1Cc2sc(-c3ccc(-c4ccsc4)cc3)cc2S1(=O)=O (racemic)")
"> 13"
>>> observed_value("CCC(C(=O)O)N1Cc2sc(-c3ccc(-c4cccs4)cc3)cc2S1(=O)=O (racemic)")
"> 23"
>>> observed_value("CCC(C(=O)O)N1Cc2sc(-c3ccc(/C=C/c4ccccc4)cc3)cc2S1(=O)=O (racemic)")
2.79
>>> observed_value("CCC(C(=O)O)N1Cc2sc(-c3ccc(-c4cnn(Cc5ccccc5)c4)cc3)cc2S1(=O)=O (racemic)")
"> 75"

CCC(C(=O)O)N1Cc2sc(-c3ccc(-c4ccccc4)cc3)cc2S1(=O)=O (racemic) yielded Ratio of 0.78

Entry CCC(C(=O)O)N1Cc2sc(/C=C/c3ccc(C(F)(F)F)cc3)cc2S1(=O)=O (racemic) — recorded Ratio = 0.63

Value of Ratio reported for the compound CCC(C(=O)O)N1Cc2sc(-c3ccc(-c4ccc(N(C)Cc5ccccc5)nc4)cc3)cc2S1(=O)=O (racemic) is > 30

Per the record, CCC(C(=O)O)N1Cc2sc(-c3ccc(-c4ccc5cnn(C)c5c4)cc3)cc2S1(=O)=O (racemic) has Ratio of 13.3

GET /value?item= CCC(C(=O)O)N1Cc2sc(-c3ccc(-c4ccc(N(C)C)nc4)cc3)cc2S1(=O)=O (racemic) &field=Ratio returns > 4.5

Ratio reading for CCC(C(=O)O)N1Cc2sc(C#Cc3ccc(N(C)C)cc3)cc2S1(=O)=O (racemic) : > 20

Please fill in: Ratio reported for CCC(C(=O)O)N1Cc2sc(C#CCC3CCCCC3)cc2S1(=O)=O (racemic) = > 3.37

Sure, the documented Ratio for CCC(C(=O)O)N1Cc2sc(C#Cc3cc(C(F)(F)F)cc(C(F)(F)F)c3)cc2S1(=O)=O (racemic) is > 6.12

Recorded result, CCC(C(=O)O)N1Cc2sc(-c3ccn(C#Cc4ccccc4)n3)cc2S1(=O)=O (racemic) , Ratio: > 7.5

Lab book: Ratio of CCC(C(=O)O)N1Cc2sc(C#Cc3ccc(-c4ccccc4)cc3)cc2S1(=O)=O (racemic) noted as > 20

---

measured.target: Matrix metalloproteinase-14 (Homo sapiens) (UniProt P50281)
test.method.notes: Inhibition of MMP14 (unknown origin)
readout.type: INH

Data point: CCC(C(=O)O)N1Cc2sc(-c3ccc(-c4ccccc4)cc3)cc2S1(=O)=O (racemic) ; INH = < 5.1 µM

// INH value for CCC(C(=O)NO)N1Cc2sc(-c3ccccc3)cc2S1(=O)=O (racemic) : 1.2 µM

Query CCC(C(=O)O)N1Cc2sc(-c3ccccc3)cc2S1(=O)=O (racemic) yields INH of > 30 µM

The molecule identified as CCC(C(=O)O)N1Cc2sc(C#Cc3ccc(N(C)C)cc3)cc2S1(=O)=O (racemic) registered its INH at > 30 µM

Record CCC(C(=O)NO)N1Cc2sc(-c3ccc(-c4ccccc4)cc3)cc2S1(=O)=O (racemic) , field INH: < 30 µM

Per the record, CCC(C(=O)O)N1Cc2sc(-c3ccc(-c4cnn(Cc5ccccc5)c4)cc3)cc2S1(=O)=O (racemic) has INH of > 30 µM

---

Tested on: Rattus norvegicus
test.method.notes: Cmax in Sprague-Dawley rat at 1 mg/kg, iv and 5 mg/kg, po
Type: ADME, organism-based
condition.description: in vivo
readout.type: Cmax (ng/mL)

(P) CCC(C(=O)O)N1Cc2sc(C#Cc3ccc(N(C)C)cc3)cc2S1(=O)=O (racemic)
(Q) CCC(C(=O)O)N1Cc2sc(-c3ccc(-c4cnn(Cc5ccccc5)c4)cc3)cc2S1(=O)=O (racemic)
Enquiry: Could you tell me which of these two has the smaller Cmax figure? First: P Second: Q Identify your pick by its label.
Return: Q

---

measured.target: A disintegrin and metalloproteinase with thrombospondin motifs 5 (Homo sapiens) (UniProt Q9UNA0)
test.method.notes: Inhibition of ADAMTS5 (unknown origin) using QF-peptide containing an aggrecanase cleavage site at 10 uM by FRET assay
readout.type: inhibition (%)

Below, 2 compounds whose answers are already recorded.
>>> observed_value("CCC(C(=O)O)N1Cc2sc(-c3ccn(Cc4ccccc4)n3)cc2S1(=O)=O (racemic)")
43.2
>>> observed_value("CCC(C(=O)O)N1Cc2sc(-c3ccccc3)cc2S1(=O)=O (racemic)")
3

(1) CCC(C(=O)O)N1Cc2sc(N3CCN(c4ccccc4)CC3)cc2S1(=O)=O (racemic)
(2) CCC(C(=O)NO)N1Cc2sc(-c3ccc(-c4ccccc4)cc3)cc2S1(=O)=O (racemic)
Enquiry: API: POST /compare with 1 and 2 ; response names the item with higher inhibition. The response must carry the label of the picked entry.
Return: 1
(1: 9%, 2: 3%)

---

test.method.notes: Half life in Sprague-Dawley rat at 1 mg/kg, iv and 5 mg/kg, po
Type: ADME, organism-based
condition.description: in vivo
readout.type: half-life (h)

(1) CCC(C(=O)O)N1Cc2sc(C#Cc3ccc(N(C)C)cc3)cc2S1(=O)=O (racemic)
(2) CCC(C(=O)O)N1Cc2sc(-c3ccc(-c4cnn(Cc5ccccc5)c4)cc3)cc2S1(=O)=O (racemic)
Enquiry: Min half-life? 1 | 2 In your reply, give the label of the chosen option.
Return: 2
(2: 1.8 h, 1: 2.8 h)

---

measured.target: A disintegrin and metalloproteinase with thrombospondin motifs 5 (Homo sapiens) (UniProt Q9UNA0)
Sequence (whole entry): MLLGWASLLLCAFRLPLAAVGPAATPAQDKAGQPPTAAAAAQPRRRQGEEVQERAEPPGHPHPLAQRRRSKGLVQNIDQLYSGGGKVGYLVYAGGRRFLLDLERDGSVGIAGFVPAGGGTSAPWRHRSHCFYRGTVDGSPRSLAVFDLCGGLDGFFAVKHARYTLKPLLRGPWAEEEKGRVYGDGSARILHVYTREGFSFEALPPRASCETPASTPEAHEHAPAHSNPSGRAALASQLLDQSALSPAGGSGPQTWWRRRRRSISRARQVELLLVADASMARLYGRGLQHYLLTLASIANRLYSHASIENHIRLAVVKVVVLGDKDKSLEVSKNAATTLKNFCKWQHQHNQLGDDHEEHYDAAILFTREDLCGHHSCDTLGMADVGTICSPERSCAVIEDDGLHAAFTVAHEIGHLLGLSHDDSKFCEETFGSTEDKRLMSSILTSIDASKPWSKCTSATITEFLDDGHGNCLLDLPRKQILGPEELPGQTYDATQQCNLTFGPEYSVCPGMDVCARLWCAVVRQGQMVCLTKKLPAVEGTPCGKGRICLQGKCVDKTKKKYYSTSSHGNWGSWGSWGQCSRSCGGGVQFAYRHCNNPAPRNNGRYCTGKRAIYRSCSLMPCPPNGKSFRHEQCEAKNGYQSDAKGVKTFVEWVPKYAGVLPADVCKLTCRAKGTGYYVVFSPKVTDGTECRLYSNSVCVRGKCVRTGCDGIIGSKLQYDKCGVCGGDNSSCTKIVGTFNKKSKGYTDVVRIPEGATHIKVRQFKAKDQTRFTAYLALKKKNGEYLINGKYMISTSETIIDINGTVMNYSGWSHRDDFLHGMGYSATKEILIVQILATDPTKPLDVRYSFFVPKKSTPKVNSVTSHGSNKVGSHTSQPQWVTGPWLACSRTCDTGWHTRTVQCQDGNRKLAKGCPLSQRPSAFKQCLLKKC
test.method.notes: Inhibition of ADAMTS5 (unknown origin) using QF-peptide containing an aggrecanase cleavage site by FRET assay
readout.type: INH (µM)

// below: answered molecules
>>> observed_value("CCC(C(=O)O)N1Cc2sc(-c3ccc(-c4cccs4)cc3)cc2S1(=O)=O (racemic)")
1.3
>>> observed_value("CCC(C(=O)O)N1Cc2sc(-c3ccc(-c4ccc(N(C)Cc5ccccc5)nc4)cc3)cc2S1(=O)=O (racemic)")
1
>>> observed_value("CCC(C(=O)O)N1Cc2sc(C#Cc3ccccn3)cc2S1(=O)=O (racemic)")
9.3
>>> observed_value("CCC(C(=O)O)N1Cc2sc(-c3ccn(C#Cc4ccccc4)n3)cc2S1(=O)=O (racemic)")
4
>>> observed_value("CCC(C(=O)O)N1Cc2sc(C#CCC3CCCCC3)cc2S1(=O)=O (racemic)")
8.9

(P) CCC(C(=O)O)N1Cc2sc(-c3ccc(-c4cnn(Cc5ccccc5)c4)cc3)cc2S1(=O)=O (racemic)
(Q) CCC(C(=O)O)N1Cc2sc(-c3ccc(-c4ccc5ccn(C)c5c4)cc3)cc2S1(=O)=O (racemic)
(R) CCC(C(=O)NO)N1Cc2sc(-c3ccccc3)cc2S1(=O)=O (racemic)
(S) CCC(C(=O)O)N1Cc2sc(/C=C/c3ccc(C(F)(F)F)cc3)cc2S1(=O)=O (racemic)
(T) CCC(C(=O)O)N1Cc2sc(C#Cc3cc(C(F)(F)F)cc(C(F)(F)F)c3)cc2S1(=O)=O (racemic)
Enquiry: Sequence the entries by INH, beginning with the highest number. Kindly provide the labels arranged according to the requested ordering.
Return: T, S, R, Q, P
(T: 4.9 µM, S: 3.2 µM, R: 2.1 µM, Q: 1 µM, P: 0.4 µM)

(a) CCC(C(=O)O)N1Cc2sc(-c3ccc(-c4ccc5cnn(C)c5c4)cc3)cc2S1(=O)=O (racemic)
(b) CCC(C(=O)O)N1Cc2sc(-c3ccc(/C=C/c4ccccc4)cc3)cc2S1(=O)=O (racemic)
Enquiry: Lab note: check whether a or b has the lower measured INH. // respond with label for picked entry
Return: a

(a) CCC(C(=O)O)N1Cc2sc(-c3ccc(-c4ccccc4)cc3)cc2S1(=O)=O (racemic)
(b) CC(C)[C@H](NS(=O)(=O)c1ccc(-c2ccccc2)cc1)C(=O)O
Enquiry: Record comparison, field INH: mark the lower of a and b . Please reply using the label of the selected record.
Return: a
(a: 2.1 µM, b: 8.2 µM)

(P) CCC(C(=O)O)N1Cc2sc(C#Cc3ccc(-c4ccccc4)cc3)cc2S1(=O)=O (racemic)
(Q) CCC(C(=O)O)N1Cc2sc(-c3ccc(-c4ccsc4)cc3)cc2S1(=O)=O (racemic)
(R) CCC(C(=O)O)N1Cc2sc(-c3ccc(-c4ccc(N(C)C)nc4)cc3)cc2S1(=O)=O (racemic)
Enquiry: Sort (3 molecules) by INH: min first. Please reply with the labels ordered as requested. Many thanks.
Return: P, Q, R
